target: Serine/threonine-protein kinase PLK1 (Homo sapiens); conditions: at 10 µM
READOUT NAME: residual activity (%)
Quick note: give the figure in %, leave out the unit.

[ask] Entry COc1ccc2c(c[n+](C)c3c4cc5c(cc4ccc23)OCO5)c1OC , system Serine/threonine-protein kinase PLK1 (Homo sapiens): what residual activity was measured?
[reply] 75

[ask] Entry COc1cc(OC)c(/C=C2\C(=O)Nc3ccccc32)c(OC)c1 , system Serine/threonine-protein kinase PLK1 (Homo sapiens): what residual activity was measured?
[reply] 77

[ask] Entry O=C1Nc2ccc3ncsc3c2/C1=C/c1c[nH]cn1 , system Serine/threonine-protein kinase PLK1 (Homo sapiens): what residual activity was measured?
[reply] 44

[ask] Entry CCn1cnc2c(Nc3cccc(Cl)c3)nc(N[C@@H]3CCCC[C@@H]3N)nc21 , system Serine/threonine-protein kinase PLK1 (Homo sapiens): what residual activity was measured?
[reply] 47

[ask] Entry C[S+]([O-])c1ccc(-c2nc(-c3ccc(F)cc3)c(-c3ccncc3)[nH]2)cc1 (centres undefined) , system Serine/threonine-protein kinase PLK1 (Homo sapiens): what residual activity was measured?
[reply] 99

[ask] Entry O=c1[nH]c2ccccc2n1C1CCN(Cc2ccc(-c3nc4cc5[nH]cnc5cc4nc3-c3ccccc3)cc2)CC1 , system Serine/threonine-protein kinase PLK1 (Homo sapiens): what residual activity was measured?
[reply] 80

[ask] Entry O=C1c2ccccc2-c2nc3nnnn3nc21 , system Serine/threonine-protein kinase PLK1 (Homo sapiens): what residual activity was measured?
[reply] 64

[ask] Entry CC(C)[C@H](CO)Nc1nc(Nc2cccc(Cl)c2)c2ncn(C(C)C)c2n1 , system Serine/threonine-protein kinase PLK1 (Homo sapiens): what residual activity was measured?
[reply] 45

[ask] Entry N/C(=N\[N+](=O)[O-])N/N=C\c1ccc(-c2cccc([N+](=O)[O-])c2)o1 , system Serine/threonine-protein kinase PLK1 (Homo sapiens): what residual activity was measured?
[reply] 78

====

molecular target: 3-phosphoinositide-dependent protein kinase 1 (Homo sapiens); details: at 10 µM
READOUT NAME: residual activity (%)
Quick note: give the figure in %, leave out the unit.

[ask] For the compound shown here, CCc1nc(-c2ccc(OC)cc2)[nH]c1-c1ccncc1 , give the reported residual activity.
[reply] 101

[ask] For the compound shown here, O=C1c2ccccc2-c2nc3nnnn3nc21 , give the reported residual activity.
[reply] 116

[ask] For the compound shown here, c1cc(-c2cnn3cc(-c4ccc(OCCN5CCCCC5)cc4)cnc23)ccn1 , give the reported residual activity.
[reply] 84

[ask] For the compound shown here, C[S+]([O-])c1ccc(-c2nc(-c3ccc(F)cc3)c(-c3ccncc3)[nH]2)cc1 (configuration not stated) , give the reported residual activity.
[reply] 107

[ask] For the compound shown here, O=[N+]([O-])/C=C/c1ccc2c(c1)OCO2 , give the reported residual activity.
[reply] 96

[ask] For the compound shown here, O=C1Nc2ccc3ncsc3c2/C1=C/c1c[nH]cn1 , give the reported residual activity.
[reply] 6

[ask] For the compound shown here, COC(=O)[C@@]1(O)C[C@H]2O[C@]1(C)n1c3ccccc3c3c4c(c5c6ccccc6n2c5c31)C(=O)NC4 , give the reported residual activity.
[reply] 0

[ask] For the compound shown here, CN[C@@H]1C[C@H]2O[C@@](C)([C@@H]1OC)n1c3ccccc3c3c4c(c5c6ccccc6n2c5c31)C(=O)NC4 , give the reported residual activity.
[reply] 0

[ask] For the compound shown here, CC(C)[C@H](CO)Nc1nc(Nc2cccc(Cl)c2)c2ncn(C(C)C)c2n1 , give the reported residual activity.
[reply] 97

[ask] For the compound shown here, COc1cc2ncnc(Nc3ccc(OCc4ccccc4)cc3)c2cc1OC , give the reported residual activity.
[reply] 114

[ask] For the compound shown here, O=c1[nH]c2ccccc2n1C1CCN(Cc2ccc(-c3nc4cc5[nH]cnc5cc4nc3-c3ccccc3)cc2)CC1 , give the reported residual activity.
[reply] 120

[ask] For the compound shown here, O=C1NC(=O)c2c1c1c3ccccc3n3c1c1c2c2ccccc2n1C1CCC3O1 , give the reported residual activity.
[reply] 4
